System: LOX IMVI melanoma
Assay: NCI-60 one-dose screen, 48 h (100 = growth as untreated, 0 = no growth, -100 = all killed)
Settings: 10 µM unless noted
Compounds without any hit were thinned out: in the full panel of roughly 83,000, 20% have a hit.
Class (required): determined from growth; valid ranges are LOW (below 50%), MID (50% to below 90%), HIGH (90% or more)

1. Cc1ccc(-n2c(-c3ccccc3)c(-c3ccccc3)c3c(SCC(=O)n4[nH]c(N)cc4=O)ncnc32)cc1; HIGH
2. Cc1ccc(Nc2nc(N)nc(CSCC(=O)NN)n2)cc1; HIGH
3. COc1cccc(/C=C/C(=O)c2c(C)nc3ccccc3c2/C=C/c2ccc(C)cc2)c1OC; LOW
4. COc1cccc(-c2nn(-c3ccccc3)cc2-c2ccnc(NCCCNC(=O)c3ccccc3)c2)c1; MID
5. O=C(/C=C/c1ccc(Cl)nc1)c1ccc(Cl)cc1Cl; LOW
6. CN(C)CCCn1c(=O)c2ccccc2c2ccccc21; MID
7. Cc1cccc(-c2nc(N(C)c3ccc4ncsc4c3)c3ccccc3n2)n1; MID
8. CCCCCCCCn1ccc2cc(NC(=O)Cn3cc(CN4CCCC4)nn3)ccc21; LOW
9. COc1ccc(N=C(c2ccccc2)C2C(=O)c3ccccc3C2=O)cc1; MID
10. CCCCCCCCCCN(CCCCCCCCCC)CC(=O)c1ccc2cc(Br)c3ccccc3c2c1; LOW
11. CCOC(CN=Cc1cc(C)c2[nH]c3ccccc3c2c1C)OCC; HIGH
12. COc1cc(C2CC(c3ccc(Nc4ccnc5cc(Cl)ccc45)cc3)=NN2C=O)cc(OC)c1OC (stereo unspecified); LOW
13. O=C(CCc1nnc(CN(c2ccccc2)c2ccccc2)o1)c1nc2ccccc2[nH]1; MID
14. C[n+]1cc2c3c(ccc2c2ccc4cc5c(cc4c21)OCO5)OCO3; LOW
15. Cc1ccc2c(c1)Sc1c(ccc3ccccc13)N2; LOW

----------
Test system: MDA-MB-231 breast
Assay: NCI-60 one-dose screen, 48 h (100 = growth as untreated, 0 = no growth, -100 = all killed)
Conditions: 10 µM unless noted
The panel holds about 83,000 compounds, 20% with a hit somewhere; the sample as a whole holds those more often.
observation type: growth (%)

1. Cc1ccc(-c2c(-c3ccccc3)c(=O)oc3ccc(C)cc23)cc1; 91
2. COc1ccc(NC(=O)c2nc(-c3cc(OC)c(OC)c(OC)c3)n(-c3cccc4ccccc34)n2)cc1OC; 27
3. COc1ccc(-c2nc3c(c(=O)n2C(C)=O)C(c2ccc(Cl)cc2)c2sc4c(Cl)cccc4c2O3)cc1 (centres undefined); -41.2
4. O=c1cc(C2NNC(=S)N2)c2ccc3ccccc3c2o1 (centres undefined); 96.3

----------
Test system: A549/ATCC NSCLC
Test: NCI-60 one-dose screen, 48 h
Settings: 10 µM unless noted
Compounds without any hit were thinned out: in the full panel of roughly 83,000, 20% have a hit. The source made the active and inactive calls. The calls were made as follows: active = growth percent below 10; inactive = the rest.
Labels: y for active, n for inactive

1) CN1CCN(CCCOc2ccc3nc(Nc4ccc(F)c(F)c4)ccc3c2)CC1; n
2) Cc1cccc(NC(=O)CSc2nc3ccccc3[nH]2)c1; n
3) Fc1cnc(NC2CC2)nc1-c1cnc2ccc(N3CCOCC3)cn12; y

----------
Tested on: IGROV1 ovarian
Test: NCI-60 one-dose screen, 48 h (100 = growth as untreated, 0 = no growth, -100 = all killed)
Details: 10 µM unless noted
This is part of a sample that, as a whole, favours compounds with a hit. Of some 83,000 tested, about 20% had one in any assay.
# growth per record follows
observation type: growth (%)

1) Cc1ccc(Cc2cnc(NC(=O)c3ccc4noc(-c5ccccc5)c4c3)s2)cc1; 96.3
2) Cc1nc2c(c(N3CCCc4ccccc43)n1)CCC2; 24.5
3) Cc1ccc(-c2cc(-c3ccccc3C)[nH]c(=O)c2C#N)s1; 80.4
4) CN1CCN(C(=O)c2c3c(n4ccccc24)C(=O)c2ncccc2C3=O)CC1; 60
5) O=C1/C(=C/c2ccc(Br)cc2)C=C(c2ccccc2)N1CCc1ccccc1; 41.9
6) CCCCc1ccc(Nc2ccc(Nc3ccc(CCCC)cc3S(=O)(=O)O)c3c2C(=O)c2ccccc2C3=O)c(S(=O)(=O)O)c1; -16.9
